system: Klebsiella pneumoniae; test: Antimicrobial activity against Klebsiella pneumoniae MTCC 3384 at 100 ug/ml after 24 hrs by agar disc diffusion method; type: functional; conditions: MTCC 3384, 24 h, read-out: DIZ
Classify as follows. Reported zone of inhibition at 100 µg/mL greater than or equal to 10 mm: YES. Reported zone of inhibition at 100 µg/mL below: NO.

{"Molecule": "COc1ccc(-c2nc(C3CC(c4ccc(O)cc4)=NN3c3ccccc3)no2)cc1OC (stereo unspecified)", "System Tested": "Klebsiella pneumoniae", "Assigned Label": "YES"}
{"Molecule": "COc1ccc(C2=NN(c3ccccc3)C(c3noc(-c4ccccc4)n3)C2)cc1 (stereo unspecified)", "System Tested": "Klebsiella pneumoniae", "Assigned Label": "NO"}
{"Molecule": "COc1cc(-c2nc(C3CC(c4ccc(O)cc4)=NN3c3ccccc3)no2)cc(OC)c1OC (stereo unspecified)", "System Tested": "Klebsiella pneumoniae", "Assigned Label": "YES"}
{"Molecule": "c1ccc(C2=NN(c3ccccc3)C(c3noc(-c4ccccc4)n3)C2)cc1 (stereo unspecified)", "System Tested": "Klebsiella pneumoniae", "Assigned Label": "NO"}
{"Molecule": "Clc1ccc(C2=NN(c3ccccc3)C(c3noc(-c4ccccc4)n3)C2)cc1 (stereo unspecified)", "System Tested": "Klebsiella pneumoniae", "Assigned Label": "NO"}
{"Molecule": "COc1ccc(C2=NN(c3ccccc3)C(/C(N)=N/O)C2)cc1 (stereo unspecified)", "System Tested": "Klebsiella pneumoniae", "Assigned Label": "NO"}
{"Molecule": "COc1ccccc1-c1nc(C2CC(c3ccc(Cl)cc3)=NN2c2ccccc2)no1 (stereo unspecified)", "System Tested": "Klebsiella pneumoniae", "Assigned Label": "NO"}
{"Molecule": "COc1ccccc1-c1nc(C2CC(c3ccccc3)=NN2c2ccccc2)no1 (stereo unspecified)", "System Tested": "Klebsiella pneumoniae", "Assigned Label": "NO"}
{"Molecule": "O=C(N[C@H](CO)[C@H](O)c1ccc([N+](=O)[O-])cc1)C(Cl)Cl", "System Tested": "Klebsiella pneumoniae", "Assigned Label": "YES"}

====

Below: a set of entries, each annotated with reported MIC.
test system: Klebsiella pneumoniae; assay: Antimicrobial activity against Klebsiella pneumoniae MTCC 3384; type: functional
Parameter: MIC (µg/mL)

{"Compound": "Clc1ccc(C2=NN(c3ccccc3)C(c3noc(-c4ccccc4)n3)C2)cc1 (configuration not stated)", "System Tested": "Klebsiella pneumoniae", "Parameter": "MIC", "Measure Unit": "µg/mL", "Reading": 25}
{"Compound": "COc1ccc(-c2nc(C3CC(c4ccccc4)=NN3c3ccccc3)no2)cc1OC (configuration not stated)", "System Tested": "Klebsiella pneumoniae", "Parameter": "MIC", "Measure Unit": "µg/mL", "Reading": 20}
{"Compound": "COc1ccc(C2=NN(c3ccccc3)C(c3noc(-c4ccccc4OC)n3)C2)cc1 (configuration not stated)", "System Tested": "Klebsiella pneumoniae", "Parameter": "MIC", "Measure Unit": "µg/mL", "Reading": 25}
{"Compound": "Oc1ccc(C2=NN(c3ccccc3)C(c3noc(-c4ccc(Cl)cc4)n3)C2)cc1 (configuration not stated)", "System Tested": "Klebsiella pneumoniae", "Parameter": "MIC", "Measure Unit": "µg/mL", "Reading": 15}
{"Compound": "N/C(=N\\O)C1CC(c2ccccc2)=NN1c1ccccc1 (configuration not stated)", "System Tested": "Klebsiella pneumoniae", "Parameter": "MIC", "Measure Unit": "µg/mL", "Reading": 40}
{"Compound": "COc1cc(-c2nc(C3CC(c4ccc(O)cc4)=NN3c3ccccc3)no2)cc(OC)c1OC (configuration not stated)", "System Tested": "Klebsiella pneumoniae", "Parameter": "MIC", "Measure Unit": "µg/mL", "Reading": 10}
{"Compound": "COc1ccc(C2=NN(c3ccccc3)C(c3noc(-c4ccccc4)n3)C2)cc1 (configuration not stated)", "System Tested": "Klebsiella pneumoniae", "Parameter": "MIC", "Measure Unit": "µg/mL", "Reading": 25}
{"Compound": "COc1ccccc1-c1nc(C2CC(c3ccccc3)=NN2c2ccccc2)no1 (configuration not stated)", "System Tested": "Klebsiella pneumoniae", "Parameter": "MIC", "Measure Unit": "µg/mL", "Reading": 55}
{"Compound": "c1ccc(-c2cc(-c3noc(-c4ccccc4)n3)n(-c3ccccc3)n2)cc1", "System Tested": "Klebsiella pneumoniae", "Parameter": "MIC", "Measure Unit": "µg/mL", "Reading": 50}
{"Compound": "Oc1ccc(C2=NN(c3ccccc3)C(c3noc(-c4ccc(O)cc4)n3)C2)cc1 (configuration not stated)", "System Tested": "Klebsiella pneumoniae", "Parameter": "MIC", "Measure Unit": "µg/mL", "Reading": 15}
{"Compound": "COc1ccc(C2=NN(c3ccccc3)C(c3noc(-c4ccc(OC)c(OC)c4)n3)C2)cc1 (configuration not stated)", "System Tested": "Klebsiella pneumoniae", "Parameter": "MIC", "Measure Unit": "µg/mL", "Reading": 20}
{"Compound": "COc1ccc(C2=NN(c3ccccc3)C(c3noc(-c4ccc(Cl)cc4)n3)C2)cc1 (configuration not stated)", "System Tested": "Klebsiella pneumoniae", "Parameter": "MIC", "Measure Unit": "µg/mL", "Reading": 25}
{"Compound": "N/C(=N\\O)C1CC(c2ccc(Cl)cc2)=NN1c1ccccc1 (configuration not stated)", "System Tested": "Klebsiella pneumoniae", "Parameter": "MIC", "Measure Unit": "µg/mL", "Reading": 20}
{"Compound": "COc1ccc(-c2nc(C3CC(c4ccc(Cl)cc4)=NN3c3ccccc3)no2)cc1OC (configuration not stated)", "System Tested": "Klebsiella pneumoniae", "Parameter": "MIC", "Measure Unit": "µg/mL", "Reading": 15}
{"Compound": "COc1ccc(-c2nc(C3CC(c4ccc(O)cc4)=NN3c3ccccc3)no2)cc1OC (configuration not stated)", "System Tested": "Klebsiella pneumoniae", "Parameter": "MIC", "Measure Unit": "µg/mL", "Reading": 25}
{"Compound": "c1ccc(C2=NN(c3ccccc3)C(c3noc(-c4ccccc4)n3)C2)cc1 (configuration not stated)", "System Tested": "Klebsiella pneumoniae", "Parameter": "MIC", "Measure Unit": "µg/mL", "Reading": 30}
{"Compound": "O=C(N[C@H](CO)[C@H](O)c1ccc([N+](=O)[O-])cc1)C(Cl)Cl", "System Tested": "Klebsiella pneumoniae", "Parameter": "MIC", "Measure Unit": "µg/mL", "Reading": 10}
{"Compound": "Clc1ccc(C2=NN(c3ccccc3)C(c3noc(-c4ccc(Cl)cc4)n3)C2)cc1 (configuration not stated)", "System Tested": "Klebsiella pneumoniae", "Parameter": "MIC", "Measure Unit": "µg/mL", "Reading": 25}
{"Compound": "Clc1ccc(-c2nc(C3CC(c4ccccc4)=NN3c3ccccc3)no2)cc1 (configuration not stated)", "System Tested": "Klebsiella pneumoniae", "Parameter": "MIC", "Measure Unit": "µg/mL", "Reading": 30}
{"Compound": "COc1ccccc1-c1nc(C2CC(c3ccc(Cl)cc3)=NN2c2ccccc2)no1 (configuration not stated)", "System Tested": "Klebsiella pneumoniae", "Parameter": "MIC", "Measure Unit": "µg/mL", "Reading": 25}
{"Compound": "N/C(=N\\O)C1CC(c2ccc(O)cc2)=NN1c1ccccc1 (configuration not stated)", "System Tested": "Klebsiella pneumoniae", "Parameter": "MIC", "Measure Unit": "µg/mL", "Reading": 20}
{"Compound": "COc1ccc(C2=NN(c3ccccc3)C(/C(N)=N/O)C2)cc1 (configuration not stated)", "System Tested": "Klebsiella pneumoniae", "Parameter": "MIC", "Measure Unit": "µg/mL", "Reading": 25}

====

Below: a set of entries, each annotated with reported zone of inhibition at 100 µg/mL.
system: Escherichia coli; assay: Antimicrobial activity against Escherichia coli MTCC 724 at 100 ug/ml after 24 hrs by agar disc diffusion method; assay type: functional; settings: MTCC 724, 24 h, read-out: DIZ

{"Molecule": "COc1ccc(-c2nc(C3CC(c4ccc(O)cc4)=NN3c3ccccc3)no2)cc1OC (configuration not stated)", "Measure Unit": "mm", "zone of inhibition at 100 µg/mL": 12}
{"Molecule": "COc1ccc(C2=NN(c3ccccc3)C(c3noc(-c4ccc(OC)c(OC)c4)n3)C2)cc1 (configuration not stated)", "Measure Unit": "mm", "zone of inhibition at 100 µg/mL": 16}
{"Molecule": "N/C(=N\\O)C1CC(c2ccccc2)=NN1c1ccccc1 (configuration not stated)", "Measure Unit": "mm", "zone of inhibition at 100 µg/mL": 7}
{"Molecule": "COc1ccccc1-c1nc(C2CC(c3ccc(Cl)cc3)=NN2c2ccccc2)no1 (configuration not stated)", "Measure Unit": "mm", "zone of inhibition at 100 µg/mL": 8}
{"Molecule": "Oc1ccc(C2=NN(c3ccccc3)C(c3noc(-c4ccc(O)cc4)n3)C2)cc1 (configuration not stated)", "Measure Unit": "mm", "zone of inhibition at 100 µg/mL": 20}
{"Molecule": "Oc1ccc(C2=NN(c3ccccc3)C(c3noc(-c4ccc(Cl)cc4)n3)C2)cc1 (configuration not stated)", "Measure Unit": "mm", "zone of inhibition at 100 µg/mL": 14}
{"Molecule": "COc1ccc(C2=NN(c3ccccc3)C(c3noc(-c4ccc(Cl)cc4)n3)C2)cc1 (configuration not stated)", "Measure Unit": "mm", "zone of inhibition at 100 µg/mL": 10}
{"Molecule": "COc1ccc(-c2nc(C3CC(c4ccc(Cl)cc4)=NN3c3ccccc3)no2)cc1OC (configuration not stated)", "Measure Unit": "mm", "zone of inhibition at 100 µg/mL": 12}
{"Molecule": "COc1ccc(-c2nc(C3CC(c4ccccc4)=NN3c3ccccc3)no2)cc1OC (configuration not stated)", "Measure Unit": "mm", "zone of inhibition at 100 µg/mL": 12}
{"Molecule": "N/C(=N\\O)C1CC(c2ccc(Cl)cc2)=NN1c1ccccc1 (configuration not stated)", "Measure Unit": "mm", "zone of inhibition at 100 µg/mL": 10}
{"Molecule": "c1ccc(C2=NN(c3ccccc3)C(c3noc(-c4ccccc4)n3)C2)cc1 (configuration not stated)", "Measure Unit": "mm", "zone of inhibition at 100 µg/mL": 8}
{"Molecule": "O=C(N[C@H](CO)[C@H](O)c1ccc([N+](=O)[O-])cc1)C(Cl)Cl", "Measure Unit": "mm", "zone of inhibition at 100 µg/mL": 18}
